Recorded % Phosphatase Activity (compared to DMSO) PRL-1 for the following compounds
Target: recombinant PRL-1 (Homo sapiens)
Construct: 6xHis (N, cleaved yes); made in house; host or cells: E. coli One Shot BL21 Star
Sequence (Q93096 whole entry): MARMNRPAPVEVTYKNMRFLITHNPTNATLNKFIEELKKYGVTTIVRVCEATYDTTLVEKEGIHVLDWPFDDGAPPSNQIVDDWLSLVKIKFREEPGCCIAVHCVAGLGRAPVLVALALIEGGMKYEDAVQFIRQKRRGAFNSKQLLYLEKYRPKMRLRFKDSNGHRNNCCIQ
Assay: In vitro phosphatase assay (DiFMUP hydrolysis), PRL-1
Type: biochemical
Conditions: FDA-approved drug screen; compared to DMSO
Counter-ions that a name gives are not always drawn.
Measurement label: % Phosphatase Activity (compared to DMSO) PRL-1

- Compound: "CCOC(=O)C1=C(C)NC(C)=C(C(=O)OC)C1c1cccc(Cl)c1Cl (stereo not drawn)"
  Observed value: "161%"
- Compound: "CCCC(C(=O)OCCN(CC)CC)(c1ccccc1)c1ccccc1 [Proadifen HCl]"
  Observed value: "94%"
- Compound: "O=C(O)CSCC(=O)NC1CCSC1=O (stereo not drawn)"
  Observed value: "93%"

---

Target: recombinant PRL-2 (Homo sapiens, UniProt Q12974)
Construct: 6xHis (N, cleaved yes); made in house; host or cells: E. coli One Shot BL21 Star
Sequence (Q12974 whole entry): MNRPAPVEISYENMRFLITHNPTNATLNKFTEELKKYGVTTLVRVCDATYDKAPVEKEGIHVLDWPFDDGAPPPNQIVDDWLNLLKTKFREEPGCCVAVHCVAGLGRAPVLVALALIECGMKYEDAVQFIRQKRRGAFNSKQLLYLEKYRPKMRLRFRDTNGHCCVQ
Assay: In vitro phosphatase assay (DiFMUP hydrolysis), PRL-2;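 note: PRL-2 activity read as DiFMUP hydrolysis after 20 min at room temperature with drug, enzyme first pre-reduced at 4 °C for 20 min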
Type: biochemical
Conditions: FDA-approved drug screen; compared to DMSO
Structures can show the parent of a compound that is named as a salt.
Recorded % Phosphatase Activity (compared to DMSO) PRL-2 for the following compounds
Measurement label: % Phosphatase Activity (compared to DMSO) PRL-2 (%)

- Compound: "C[C@]12C=CC(=O)N[C@@H]1CC[C@@H]1[C@@H]2CC[C@]2(C)[C@@H](C(=O)Nc3cc(C(F)(F)F)ccc3C(F)(F)F)CC[C@@H]12 [Dutasteride]"
  Observed value: 88
- Compound: "Cc1ccc(-n2nc(C(C)(C)C)cc2NC(=O)Nc2ccc(OCCN3CCOCC3)c3ccccc23)cc1"
  Observed value: 106
- Compound: "COc1ccc([C@@H]2Sc3ccccc3N(CCN(C)C)C(=O)[C@@H]2OC(C)=O)cc1 [Diltiazem HCl]"
  Observed value: 111
- Compound: "COC(=O)c1ccc2c(c1)NC(=O)/C2=C(\\Nc1ccc(N(C)C(=O)CN2CCN(C)CC2)cc1)c1ccccc1"
  Observed value: 106

---

Target: recombinant PRL-3 (Homo sapiens, UniProt O75365)
Construct: 6xHis (N, cleaved yes); made in house; host or cells: E. coli One Shot BL21 Star
Sequence (O75365 whole entry): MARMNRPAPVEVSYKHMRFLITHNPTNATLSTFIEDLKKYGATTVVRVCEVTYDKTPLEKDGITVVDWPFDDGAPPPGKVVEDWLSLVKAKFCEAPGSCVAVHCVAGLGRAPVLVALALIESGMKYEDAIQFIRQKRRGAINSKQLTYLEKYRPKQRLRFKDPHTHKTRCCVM
Experiment: In vitro phosphatase assay (DiFMUP hydrolysis), PRL-3
Type: biochemical
Conditions: FDA-approved drug screen; activity compared to DMSO
Where a name gives a salt, the structure may show the parent alone.
% Phosphatase Activity (compared to DMSO) PRL-3 of 90% or higher: true. Under 90%: false.

- Compound: "CCCCC(=O)N(Cc1ccc(-c2ccccc2-c2nnn[nH]2)cc1)[C@H](C(=O)O)C(C)C"
  Tgt: "recombinant PRL-3 (Homo sapiens, UniProt O75365)"
  Assigned category: "true"
- Compound: "Cc1ccc(O)c([C@H](CCN(C(C)C)C(C)C)c2ccccc2)c1 [Tolterodine tartrate]"
  Tgt: "recombinant PRL-3 (Homo sapiens, UniProt O75365)"
  Assigned category: "true"
- Compound: "NS(=O)(=O)Cc1noc2ccccc12 [Zonisamide]"
  Tgt: "recombinant PRL-3 (Homo sapiens, UniProt O75365)"
  Assigned category: "false"
- Compound: "O=C1O[C@H]([C@@H](O)CO)C(O)=C1O"
  Tgt: "recombinant PRL-3 (Homo sapiens, UniProt O75365)"
  Assigned category: "false"
- Compound: "O=C(O)CCCc1ccccc1 [Sodium Phenylbutyrate]"
  Tgt: "recombinant PRL-3 (Homo sapiens, UniProt O75365)"
  Assigned category: "false"
- Compound: "CC(c1cc2ccccc2s1)N(O)C(N)=O (centres unmarked)"
  Tgt: "recombinant PRL-3 (Homo sapiens, UniProt O75365)"
  Assigned category: "false"
- Compound: "COc1cc(C(=O)NC2CCCNC2)cc(OC)c1OC (centres unmarked) [Troxipide]"
  Tgt: "recombinant PRL-3 (Homo sapiens, UniProt O75365)"
  Assigned category: "false"
- Compound: "COc1cc2/c(=N/c3ccc(Br)cc3F)nc[nH]c2cc1OCC1CCN(C)CC1 [Vandetanib (ZD6474)]"
  Tgt: "recombinant PRL-3 (Homo sapiens, UniProt O75365)"
  Assigned category: "false"
- Compound: "O=S(=O)(O)Oc1ccc(C(c2ccc(OS(=O)(=O)O)cc2)c2ccccn2)cc1 [Sodium Picosulfate]"
  Tgt: "recombinant PRL-3 (Homo sapiens, UniProt O75365)"
  Assigned category: "false"
- Compound: "C[C@@H]1CCN(C(=O)CC#N)C[C@@H]1N(C)c1ncnc2[nH]ccc12"
  Tgt: "recombinant PRL-3 (Homo sapiens, UniProt O75365)"
  Assigned category: "true"
- Compound: "CN(C/C=C/C#CC(C)(C)C)Cc1cccc2ccccc12 [Terbinafine HCl]"
  Tgt: "recombinant PRL-3 (Homo sapiens, UniProt O75365)"
  Assigned category: "false"
- Compound: "O=C(NS(=O)(=O)c1ccc(Br)s1)c1ccc(Cl)cc1Cl"
  Tgt: "recombinant PRL-3 (Homo sapiens, UniProt O75365)"
  Assigned category: "true"
- Compound: "CC1(O)CCC(C(C)(C)O)CC1.O (centres unmarked) [Terpin (hydrate)]"
  Tgt: "recombinant PRL-3 (Homo sapiens, UniProt O75365)"
  Assigned category: "false"
- Compound: "CN[C@H]1CC[C@@H](c2ccc(Cl)c(Cl)c2)c2ccccc21 [Sertraline HCl]"
  Tgt: "recombinant PRL-3 (Homo sapiens, UniProt O75365)"
  Assigned category: "false"
- Compound: "CCCS(=O)(=O)Nc1ccc(F)c(C(=O)c2c[nH]c3ncc(-c4ccc(Cl)cc4)cc23)c1F"
  Tgt: "recombinant PRL-3 (Homo sapiens, UniProt O75365)"
  Assigned category: "false"
- Compound: "Nc1ccc(S(=O)(=O)NC(=O)c2ccccc2)cc1 [Sulfabenzamide]"
  Tgt: "recombinant PRL-3 (Homo sapiens, UniProt O75365)"
  Assigned category: "false"
- Compound: "Nc1ccc(S(=O)(=O)Nc2nccs2)cc1"
  Tgt: "recombinant PRL-3 (Homo sapiens, UniProt O75365)"
  Assigned category: "false"
- Compound: "C[N+]1(C)[C@@H]2C[C@@H](OC(=O)C(O)(c3cccs3)c3cccs3)C[C@H]1[C@@H]1O[C@@H]12 [Tiotropium Bromide hydrate]"
  Tgt: "recombinant PRL-3 (Homo sapiens, UniProt O75365)"
  Assigned category: "false"

Where these numbers come from: paper PMC8119466
